System: embryonal chicken chondrocytes
test-protocol: Increase of DNA synthesis of embryonal chicken chondrocytes
Assay type: cell-based
study-conditions: relative to recombinant hPTH (=100); stimulation beyond the base level; chondrocytes
Each entry below carries its reported DNA synthesis (%) relative activity.

>  <molecule>
K27R: hPTH variant Lys(27) -> Arg(27), lengthened N-terminally by one proline (protein, UniProt P01270 32-115, looked up, variant K27R, Parathyroid hormone N-terminal proline extension, hPTH variant Lys(27) -> Arg(27), lengthened N-terminally by one proline) Parathyroid hormone: SVSEIQLMHNLGKHLNSMERVEWLRKRLQDVHNFVALGAPLAPRDAGSQRPRKKEDNVLVESHEKSLGEADKADVNVLTKAKSQ

>  <DNA synthesis (%) relative activity>
81

$$$$
>  <molecule>
Q29N: hPTH variant Gln(29) -> Asn(29), lengthened N-terminally by one proline (protein, UniProt P01270 32-115, looked up, variant Q29N, Parathyroid hormone N-terminal proline extension, hPTH variant Gln(29) -> Asn(29), lengthened N-terminally by one proline) Parathyroid hormone: SVSEIQLMHNLGKHLNSMERVEWLRKKLNDVHNFVALGAPLAPRDAGSQRPRKKEDNVLVESHEKSLGEADKADVNVLTKAKSQ

>  <DNA synthesis (%) relative activity>
95

$$$$
